Test system: affinity purified β2GPI-dependent antiphospholipid antibody
Test: Competitive inhibition ELISA: recombinant β2GPI proteins compete for antibody binding to coated full length recombinant β2GPI
Set-up: species or system human
Conditions: Ab 6652
quantity: Max (maximum inhibition observed at concentrations tested) (%)
Write the value in % as a bare number.

Query: Max (maximum inhibition observed at concentrations tested); subject: -2345: recombinant β2GPI deletion mutant with domains 2-5 (protein) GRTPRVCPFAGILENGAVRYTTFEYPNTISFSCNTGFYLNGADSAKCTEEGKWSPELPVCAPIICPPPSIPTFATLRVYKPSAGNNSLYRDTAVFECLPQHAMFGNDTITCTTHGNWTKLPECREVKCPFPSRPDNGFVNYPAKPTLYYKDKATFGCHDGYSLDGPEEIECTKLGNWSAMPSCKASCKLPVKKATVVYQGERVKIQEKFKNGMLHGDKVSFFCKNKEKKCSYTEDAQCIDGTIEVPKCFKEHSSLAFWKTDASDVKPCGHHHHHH 40
